What % id/organ, Liver was measured for each of the following?
experiment: Rat biodistribution of Tc-99m complexes from isolated stereoisomers (Example 24); details: (a) diastereoisomers; 1 hr pi; rats; mean from 3 animals
Numbers only, in % id/organ.

The examples below pair each entry with its known result.
>>> assay_result("CC(=NO)[C@H](C)NCCCN[C@H](C)C(C)=NO")
20.7
>>> assay_result("CC(=NO)[C@H](C)NCC(C)(C)CN[C@@H](C)C(C)=NO (relative stereo) [Compound 1 d1]")
11.9
>>> assay_result("CC(=NO)[C@H](C)NCC(C)(C)CN[C@H](C)C(C)=NO")
23.7

Proceed to the following item.
Problem: Which % id/organ, Liver value belongs to CC(=NO)[C@H](C)NCCCN[C@@H](C)C(C)=NO (relative stereo) [Compound 2 d1] ?
Result: 9.4

The reported measurements were obtained from patent US4789736A.
